The measurements presented in this section are drawn from patent US11566007B2.

Each entry below carries its recorded IC50.
Target: NRAS G12C (Homo sapiens (Human), UniProt P01111+P62937, G12C)
Sequence (P01111 whole entry G12C): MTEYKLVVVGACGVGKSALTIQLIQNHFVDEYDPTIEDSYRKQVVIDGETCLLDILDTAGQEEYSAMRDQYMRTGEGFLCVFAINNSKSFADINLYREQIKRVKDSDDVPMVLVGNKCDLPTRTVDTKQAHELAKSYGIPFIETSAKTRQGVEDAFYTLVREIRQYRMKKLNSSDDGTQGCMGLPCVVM
Sequence (P62937 whole entry): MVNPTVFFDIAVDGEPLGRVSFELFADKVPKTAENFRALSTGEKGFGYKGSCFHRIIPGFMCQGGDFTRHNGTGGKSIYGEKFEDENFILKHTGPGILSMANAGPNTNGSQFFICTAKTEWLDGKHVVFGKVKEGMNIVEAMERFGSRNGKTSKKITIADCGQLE
Assay: Ras-Raf (BRAF RBD) disruption / FRET / MOA assay, NRAS G12C
Format: biochemical
Conditions: read-out: IC50* NRAS G12C FRET data

| compound | result |
| --- | --- |
| CO[C@@H](C)c1ncccc1-c1c2c3cc(ccc3n1CC(F)(F)F)-c1nc(cs1)C[C@H](NC(=O)[C@H](C(C)C)N(C)C(=O)[C@H]1CCN(C(=O)C#CC(C)(C)N3CCC3)C1)C(=O)N1CCC[C@H](N1)C(=O)OCC(C)(C)C2 (atropisomer, axis not shown) [Example A454] | 10 to 100 nM |

Name the value of IC50 reported for C=CC(=O)N1CC[C@@]2(CCN([C@H](C(=O)N[C@H]3Cc4cccc(c4)-c4ccc5c(c4)c(c(-c4cccnc4[C@H](C)OC)n5CC)CC(C)(C)COC(=O)[C@@H]4CCCN(N4)C3=O)C(C)C)C2=O)C1 (atropisomer, axis not shown) [Example A471] when tested on NRAS G12C (Homo sapiens (Human), UniProt P01111+P62937, G12C).
100 to 1000 nM

* * *

Each entry below carries its recorded IC50.
Target: KRAS G12V (Homo sapiens (Human), UniProt P01116+P62937, G12V)
Sequence (P01116-2 other isoform, or with tags, fused parts or gaps G12V, one chain of several): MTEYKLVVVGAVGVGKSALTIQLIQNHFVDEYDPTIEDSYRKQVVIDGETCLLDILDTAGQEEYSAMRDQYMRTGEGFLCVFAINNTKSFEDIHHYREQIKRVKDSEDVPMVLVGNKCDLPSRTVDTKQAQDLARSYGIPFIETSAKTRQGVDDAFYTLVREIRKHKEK
Assay: Ras-Raf (BRAF RBD) disruption / FRET / MOA assay, KRAS G12V
Assay type: biochemical
Settings: read-out: IC50* KRAS G12V FRET data

| compound | result |
| --- | --- |
| C=CC(=O)N1CC[C@H](C(=O)N(C)[C@H](C(=O)N[C@H]2Cc3cc(cc(C(F)F)c3)-c3ccc4c(c3)c(c(-c3cccnc3[C@H](C)OC)n4CC)CC(C)(C)COC(=O)[C@@H]3CCCN(N3)C2=O)C(C)C)C1 (atropisomer, axis not shown) | 1000 to 10000 nM |

Quickly give me recorded IC50 for C=CC(=O)N1C[C@@H]2CN(C(=O)N(C)[C@H](C(=O)N[C@H]3Cc4nc(cs4)-c4ccc5c(c4)c(c(-c4cccnc4[C@H](C)OC)n5CC)CC(C)(C)COC(=O)[C@@H]4CCCN(N4)C3=O)C(C)C)[C@@H]2C1 (atropisomer, axis not shown)
1000 to 10000 nM

Quickly give me recorded IC50 for CCn1c(-c2cccnc2[C@H](C)OC)c2c3cc(ccc31)N1CCO[C@@H](C[C@H](NC(=O)[C@H](C(C)C)N(C)C(=O)[C@@]3(F)CCC(C(=O)C#CC(C)(C)N4CCC4)C3)C(=O)N3CCC[C@H](N3)C(=O)OCC(C)(C)C2)C1 (stereo partly shown)
1000 to 10000 nM

Quickly give me recorded IC50 for `C=CC(=O)N1CC[C@H](C(=O)N(C)[C@H](C(=O)N[C@H]2Cc3cc(O)cc(c3)-c3ccc4c(c3)c(c(-c3cncc5c3[C@@H](OC)CC5)n4CC)CC(C)(C)COC(=O)[C@@H]3CCCN(N3)C2=O)C(C)C)C1`
10 to 100 nM

* * *

Biological target: KRAS G12S (Homo sapiens (Human), UniProt P01116+P62937, G12S)
Sequence (P01116-2 other isoform, or with tags, fused parts or gaps G12S, one chain of several): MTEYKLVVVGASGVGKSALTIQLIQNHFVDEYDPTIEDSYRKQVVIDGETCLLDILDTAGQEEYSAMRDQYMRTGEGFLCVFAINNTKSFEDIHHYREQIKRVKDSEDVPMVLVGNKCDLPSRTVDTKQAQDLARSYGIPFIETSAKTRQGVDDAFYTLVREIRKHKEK
Experiment: Ras-Raf (BRAF RBD) disruption / FRET / MOA assay, KRAS G12S
Assay type: biochemical
Conditions: Ras-Raf disruption/FRET/MOA assay; class symbols; read-out: KRAS G12S FRET data IC50
pIC50: −log10 of the molar value.
Each entry below carries its recorded pIC50.

Quickly give me recorded pIC50 for CCn1c(-c2cccnc2[C@H](C)OC)c2c3cc(ccc31)-c1csc(n1)C[C@H](NC(=O)[C@H](C(C)C)N(C)C(=O)N(C)C1CN(C(=O)/C=C/[C@@H]3CCCN3C)C1)C(=O)N1CCC[C@H](N1)C(=O)OCC(C)(C)C2 (atropisomer, axis not shown)
6.00 to 7.00

Quickly give me recorded pIC50 for CCn1c(-c2cccnc2[C@H](C)OC)c2c3cc(ccc31)-c1cccc(c1)C[C@H](NC(=O)[C@H](C(C)C)N1CC[C@]3(CCN(C(=O)C#C[C@H]4COCCN4C4COC4)C3)C1=O)C(=O)N1CCC[C@H](N1)C(=O)OCC(C)(C)C2 (atropisomer, axis not shown)
5.00 to 6.00

Quickly give me recorded pIC50 for CC#CC(=O)N1CC[C@@]2(CCN([C@H](C(=O)N[C@H]3Cc4cccc(c4)-c4ccc5c(c4)c(c(-c4cccnc4[C@H](C)OC)n5CC)CC(C)(C)COC(=O)[C@@H]4CCCN(N4)C3=O)C(C)C)C2=O)C1 (atropisomer, axis not shown)
5.00 to 6.00

Quickly give me recorded pIC50 for CCn1c(-c2cccnc2[C@H](C)OC)c2c3cc(ccc31)-c1csc(n1)C[C@H](NC(=O)[C@H](C(C)C)N1CC[C@@]3(CCN(C(=O)C#CC(C)(C)N(C)C)C3)C1=O)C(=O)N1CCC[C@H](N1)C(=O)OCC(C)(C)C2 (single isomer, unassigned)
5.00 to 6.00

* * *

Target: K-Ras G12C (Homo sapiens (Human), UniProt P01116+P62937, G12C)
Sequence (P01116-2 other isoform, or with tags, fused parts or gaps G12C, one chain of several): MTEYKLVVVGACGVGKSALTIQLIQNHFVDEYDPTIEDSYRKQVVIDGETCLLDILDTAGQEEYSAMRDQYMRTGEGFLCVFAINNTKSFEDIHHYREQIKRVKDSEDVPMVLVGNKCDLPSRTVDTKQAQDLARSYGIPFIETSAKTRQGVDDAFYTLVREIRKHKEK
Assay: Ras-Raf (BRAF RBD) disruption / FRET / MOA assay, KRAS G12C
Type: biochemical
Settings: KRAS G12C; Ras-Raf disruption/FRET/MOA assay; read-out: IC50* KRAS G12C FRET data
pIC50: −log10 of the molar value.
recorded metric: pIC50

| molecule | pIC50 |
| --- | --- |
| CCn1c(-c2cccnc2[C@H](C)OC)c2c3cc(ccc31)-c1cc(O)cc(c1)C[C@H](NC(=O)[C@H](C(C)C)N(C)C(=O)c1ncc(NC(=O)/C=C/CN(C)C)n1C)C(=O)N1CCC[C@H](N1)C(=O)OCC(C)(C)C2 | > 8.00 |

Consider now this further molecule.
Name the value of pIC50 reported for CCn1c(-c2cccnc2[C@H](C)OC)c2c3cc(ccc31)-c1csc(n1)C[C@H](NC(=O)[C@H](C(C)C)N(C)C(=O)N1CCC13CN(C(=O)/C=C/CN(C)C)C3)C(=O)N1CCC[C@H](N1)C(=O)OCC(C)(C)C2 (atropisomer, axis not shown) when tested on K-Ras G12C (Homo sapiens (Human), UniProt P01116+P62937, G12C).
7.00 to 8.00

* * *

Target: KRAS G12V (Homo sapiens (Human), UniProt P01116+P62937, G12V)
Assay: Ras-Raf (BRAF RBD) disruption / FRET / MOA assay, KRAS G12V
Type: biochemical
Conditions: read-out: IC50* KRAS G12V FRET data
recorded metric: IC50

Consider the reported IC50 for these compounds:
| compound | recorded metric | result |
| --- | --- | --- |
| CO[C@@H](C)c1ncccc1-c1c2c3cc(ccc3n1CC(F)(F)F)-c1cc(F)cc(c1)C[C@H](NC(=O)[C@@H](COC1CN(C(=O)C#CC(C)(C)N(C)C)C1)C(C)C)C(=O)N1CCC[C@H](N1)C(=O)OCC(C)(C)C2 (atropisomer, axis not shown) | IC50 | 1 to 10 µM |
| C=CC(=O)N1CC[C@@](C#N)(C(=O)N(C)[C@H](C(=O)N[C@H]2Cc3cccc(c3)-c3ccc4c(c3)c(c(-c3cccnc3[C@H](C)OC)n4CC)CC(C)(C)COC(=O)[C@@H]3CCCN(N3)C2=O)C(C)C)C1 (atropisomer, axis not shown) | IC50 | 0.1 to 1 µM |
| CCn1c(-c2cnccc2COC)c2c3cc(ccc31)-c1cc(O)cc(c1)C[C@H](NC(=O)[C@H](C(C)C)N(C)C(=O)[C@H]1CCN(C(=O)C#CCN(C)C)C1)C(=O)N1CCC[C@H](N1)C(=O)OCC(C)(C)C2 (atropisomer, axis not shown) | IC50 | 0.1 to 1 µM |
| C=CC(=O)N1CC2(C1)OCCN2C(=O)N(C)[C@H](C(=O)N[C@H]1Cc2nc(cs2)-c2ccc3c(c2)c(c(-c2cccnc2[C@H](C)OC)n3CC)CC(C)(C)COC(=O)[C@@H]2CCCN(N2)C1=O)C(C)C (atropisomer, axis not shown) | IC50 | 0.1 to 1 µM |
| C=CC(=O)N1CC[C@H](C(=O)N2CC[C@H](C)[C@H]2C(=O)N[C@H]2Cc3cccc(c3)-c3ccc4c(c3)c(c(-c3cccnc3[C@H](C)OC)n4CC)CC(C)(C)COC(=O)[C@@H]3CCCN(N3)C2=O)C1 (atropisomer, axis not shown) | IC50 | > 10 µM |

Quickly give me recorded IC50 for CCn1c(-c2cccnc2[C@H](C)OC)c2c3cc(ccc31)-c1cccc(c1)C[C@H](NC(=O)[C@H](C(C)C)N(C)C(=O)[C@H]1CCN(C(=O)/C=C/CN3CC(OC)C3)C1)C(=O)N1CCC[C@H](N1)C(=O)OCC(C)(C)C2 (atropisomer, axis not shown) [Example A203]
> 10 µM

Quickly give me recorded IC50 for C=CC(=O)N1C[C@H]2CN(C(=O)N(C)[C@H](C(=O)N[C@H]3Cc4nc(cs4)-c4ccc5c(c4)c(c(-c4cccnc4[C@H](C)OC)n5CC)CC(C)(C)COC(=O)[C@@H]4CCCN(N4)C3=O)C(C)C)[C@H]2C1 (atropisomer, axis not shown)
0.1 to 1 µM
